Data origin: PubChem BioAssay (NCI)

System: OVCAR-5 ovarian
Assay: NCI tumour cell line growth inhibition, 48 h
Catalogue of TGI values

molecule | measured.on | TGI
Cc1ccc(NC(=O)CC(=O)N2N=C(N3CCCCC3)CC2c2ccccc2)cc1 (stereo not given) | OVCAR-5 ovarian | > 100 µM
COc1ccc(CN2C(=O)/C(=C\C(=O)c3ccc(OCCN4CCCC4)cc3)c3ccccc32)cc1 | OVCAR-5 ovarian | 4.76 µM
CC1(c2nc3ccccc3[nH]2)CCC(C#N)C(C)(C)O1 (stereo not given) | OVCAR-5 ovarian | > 100 µM
CSC1=C(SC)C(=O)c2cn(C)c(=O)cc2C1=O | OVCAR-5 ovarian | 35.2 µM
C[C@@H]1CC[C@H]2[C@@H](C)C(OC/C=C/COC3O[C@@H]4O[C@@]5(C)CC[C@H]6[C@H](C)CC[C@@H]([C@H]3C)[C@@]46OO5)O[C@@H]3O[C@@]4(C)CC[C@@H]1[C@]32OO4 (stereo not given in full) | OVCAR-5 ovarian | 0.257 µM
CC1(C)CCCC2CC2CCC(C)(C)C1=O (stereo not given) | OVCAR-5 ovarian | > 100 µM
COc1cccc(C2c3cc4c(cc3OC(NNC(N)=O)C2C)OCO4)c1O (stereo not given) | OVCAR-5 ovarian | > 100 µM
CC(=O)NNc1nc(C)c(C(/C=C/c2ccc(Cl)cc2)=N\N=C(N)N)s1 | OVCAR-5 ovarian | > 100 µM
O=C1C=CC(=O)c2c(O)c(NCCO)c(Cl)c(O)c21 | OVCAR-5 ovarian | > 5.87 µM
CS(=O)(=O)c1ccc2c(c1)C(=O)c1c-2n(CCCBr)c(=O)c2cc([N+](=O)[O-])ccc12 | OVCAR-5 ovarian | > 100 µM
Cc1ccc(N=NN(C)C(C)C(O)Cc2ccccc2)cc1 (stereo not given) | OVCAR-5 ovarian | > 100 µM
CC(C)=CC1C(COC(=O)c2ccccc2Cl)C1(C)C (stereo not given) | OVCAR-5 ovarian | > 100 µM
Cc1cc(N(CCC#N)CCC#N)ccc1/C=C1N=C(/C=C/c2ccccc2)N(c2ccc(S(N)(=O)=O)cc2)C\1=O | OVCAR-5 ovarian | > 100 µM
COc1cccc(N2C(=O)/C(=C/c3ccc(N(CCC#N)CCC#N)cc3)N=C2c2cc([N+](=O)[O-])ccc2Cl)c1 | OVCAR-5 ovarian | > 100 µM
COc1ccc(C[n+]2cccc(O)c2)cc1 | OVCAR-5 ovarian | > 100 µM
COc1ccc(C2=NN(C=O)C(c3ccc(OS(=O)(=O)c4ccc(C)cc4)c(OC)c3)C2)cc1 (stereo not given) | OVCAR-5 ovarian | > 100 µM
COc1ccc(C2CC(c3ccccc3)=NN2C(=O)c2cc(OC)c(OC)c(OC)c2)cc1O (stereo not given) | OVCAR-5 ovarian | > 65.5 µM
Clc1ccc(-c2nc3c(-c4ccccc4)nc(-c4ccccc4)cn3c2-c2ccc(Cl)cc2)cc1 | OVCAR-5 ovarian | > 100 µM
O=c1sc(Nc2ccc3ccccc3c2Cl)nc2ccccc12 | OVCAR-5 ovarian | > 100 µM
CC(=O)Nc1c2sscc-2n(C)c1=O | OVCAR-5 ovarian | 3 µM
